Target: UniProt Q92769
Sequence (Q92769 whole entry): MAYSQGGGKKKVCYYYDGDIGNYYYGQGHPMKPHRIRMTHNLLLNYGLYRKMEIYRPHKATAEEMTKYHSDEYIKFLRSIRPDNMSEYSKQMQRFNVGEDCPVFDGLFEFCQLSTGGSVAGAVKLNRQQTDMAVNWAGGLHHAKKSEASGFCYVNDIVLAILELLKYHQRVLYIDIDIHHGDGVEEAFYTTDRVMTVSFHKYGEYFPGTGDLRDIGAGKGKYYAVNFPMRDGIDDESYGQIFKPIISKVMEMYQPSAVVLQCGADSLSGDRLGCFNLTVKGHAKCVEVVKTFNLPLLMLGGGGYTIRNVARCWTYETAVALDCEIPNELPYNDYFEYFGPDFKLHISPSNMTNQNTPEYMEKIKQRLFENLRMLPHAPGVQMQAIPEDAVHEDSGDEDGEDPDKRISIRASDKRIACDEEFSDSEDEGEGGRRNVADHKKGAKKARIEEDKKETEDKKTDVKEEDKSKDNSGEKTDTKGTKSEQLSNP
pIC50: −log10 of the molar value.

molecule	system name	pIC50
COc1cc(/C=C/C(=O)c2ccc(OCCCCCCC(=O)NO)cc2)cc(OC)c1OC [4c]	UniProt Q92769	6.56

* * *

Listing of recorded IC50 by entry.
Target: HDAC6 (Homo sapiens, UniProt Q9UBN7)
Sequence (Q9UBN7 whole entry): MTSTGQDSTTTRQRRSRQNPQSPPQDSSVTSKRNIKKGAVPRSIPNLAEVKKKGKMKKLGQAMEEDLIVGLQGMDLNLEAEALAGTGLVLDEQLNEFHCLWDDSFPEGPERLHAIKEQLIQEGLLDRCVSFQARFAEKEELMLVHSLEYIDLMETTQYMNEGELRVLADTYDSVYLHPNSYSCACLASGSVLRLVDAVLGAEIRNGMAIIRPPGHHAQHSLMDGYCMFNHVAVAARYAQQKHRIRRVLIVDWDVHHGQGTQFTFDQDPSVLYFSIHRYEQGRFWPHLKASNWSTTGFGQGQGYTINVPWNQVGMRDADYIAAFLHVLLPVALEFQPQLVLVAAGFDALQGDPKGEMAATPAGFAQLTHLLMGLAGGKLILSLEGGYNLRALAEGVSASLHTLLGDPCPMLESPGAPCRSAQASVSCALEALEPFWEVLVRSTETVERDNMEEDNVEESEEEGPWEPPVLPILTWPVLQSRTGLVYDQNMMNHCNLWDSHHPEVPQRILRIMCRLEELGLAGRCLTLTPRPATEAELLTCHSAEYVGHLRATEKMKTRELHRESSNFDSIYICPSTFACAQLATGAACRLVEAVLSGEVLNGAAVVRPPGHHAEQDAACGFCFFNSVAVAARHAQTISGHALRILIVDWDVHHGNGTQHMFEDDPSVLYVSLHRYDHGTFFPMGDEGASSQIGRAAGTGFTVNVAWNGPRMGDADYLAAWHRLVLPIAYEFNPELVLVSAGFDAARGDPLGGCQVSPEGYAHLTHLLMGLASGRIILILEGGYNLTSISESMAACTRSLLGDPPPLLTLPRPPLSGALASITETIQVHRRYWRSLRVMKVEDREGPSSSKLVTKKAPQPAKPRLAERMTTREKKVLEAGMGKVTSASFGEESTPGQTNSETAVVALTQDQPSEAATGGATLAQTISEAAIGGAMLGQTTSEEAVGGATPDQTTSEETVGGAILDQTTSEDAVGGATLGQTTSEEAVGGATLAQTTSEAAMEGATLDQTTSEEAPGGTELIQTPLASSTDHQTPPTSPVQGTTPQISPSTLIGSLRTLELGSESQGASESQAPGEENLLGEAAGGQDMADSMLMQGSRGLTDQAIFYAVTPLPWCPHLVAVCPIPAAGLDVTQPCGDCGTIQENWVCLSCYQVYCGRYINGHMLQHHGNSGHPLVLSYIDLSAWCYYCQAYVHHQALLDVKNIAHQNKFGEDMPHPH
Experiment: In vitro HDAC inhibition assay, HDAC6

compound	unit annotation	IC50
COc1cc(/C=C/C(=O)c2ccc(OCCCCCCC(=O)NO)cc2)cc(OC)c1OC [4c]	nM	113
COc1cc(/C=C/C(=O)c2ccc(OCCCCC(=O)NO)cc2)cc(OC)c1OC [4a]	nM	86

* * *

Target: HDAC8 (Homo sapiens, UniProt Q9BY41)
Sequence (Q9BY41 1-377): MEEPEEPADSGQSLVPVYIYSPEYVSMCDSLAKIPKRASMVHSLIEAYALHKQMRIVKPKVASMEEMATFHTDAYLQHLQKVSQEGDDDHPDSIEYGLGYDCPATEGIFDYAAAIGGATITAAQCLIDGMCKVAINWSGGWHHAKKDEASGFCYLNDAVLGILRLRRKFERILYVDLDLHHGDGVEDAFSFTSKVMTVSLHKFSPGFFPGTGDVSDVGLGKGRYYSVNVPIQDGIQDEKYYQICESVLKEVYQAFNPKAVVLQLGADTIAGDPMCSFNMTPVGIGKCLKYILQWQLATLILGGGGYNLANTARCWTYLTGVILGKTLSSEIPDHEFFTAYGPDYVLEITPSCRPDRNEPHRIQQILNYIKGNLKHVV
recorded endpoint: IC50 (µM)

COc1cc(/C=C/C(=O)c2ccc(OCCCCC(=O)NO)cc2)cc(OC)c1OC 6.35

* * *

Test system: A549
Assay: Antiproliferative MTT assay, A549
Details: Homo sapiens, A549, read-out: Antiproliferative Activity IC50 ± SEM, A549
Here, each record is paired with measured IC50 data.
recorded endpoint: IC50 (µM)

compound	readout number
COc1cc(/C=C/C(=O)c2ccc(OCCCCCCC(=O)O)cc2)cc(OC)c1OC [2c]	22.7
COc1cc(-c2cc(-c3ccc(OCCCCC(=O)NO)cc3)[nH]c(=O)c2C#N)cc(OC)c1OC [5a]	2.3
COc1cc(-c2cc(-c3ccc(OCCCCCCC(=O)NO)cc3)[nH]c(=O)c2C#N)cc(OC)c1OC [5c]	8.58
COc1cc(/C=C/C(=O)c2ccc(OCCCCC(=O)O)cc2)cc(OC)c1OC [2a]	44.4
COc1cc(/C=C/C(=O)c2ccc(OCCCCCCC(=O)NO)cc2)cc(OC)c1OC [4c]	1.93
COc1cc(-c2cc(-c3ccc(OCCCCCC(=O)O)cc3)[nH]c(=O)c2C#N)cc(OC)c1OC [3b]	15.3
COc1cc(-c2cc(-c3ccc(OCCCCC(=O)O)cc3)[nH]c(=O)c2C#N)cc(OC)c1OC [3a]	31
COc1cc(-c2cc(-c3ccc(OCCCCCC(=O)NO)cc3)[nH]c(=O)c2C#N)cc(OC)c1OC [5b]	18.8
COc1cc(/C=C/C(=O)c2ccc(OCCCCC(=O)NO)cc2)cc(OC)c1OC [4a]	2.07
COc1cc(-c2cc(-c3ccc(OCCCCCCC(=O)O)cc3)[nH]c(=O)c2C#N)cc(OC)c1OC [3c]	21.3
COc1cc(/C=C/C(=O)c2ccc(OCCCCCC(=O)O)cc2)cc(OC)c1OC [2b]	33.7
COc1cc(/C=C/C(=O)c2ccc(OCCCCCC(=O)NO)cc2)cc(OC)c1OC [4b]	0.797

Source: paper PMC8620908
